assay: activity coefficient (dimensionless); of the first substance listed, at infinite dilution; xn = mol fraction of the nth substance listed; conditions: 338.15 K; 101 kPa; Liquid; Chromatography; x1 = 0
We label by threshold. Values of activity coefficient strictly beneath 2 are Met. Values of 2 and up are Not met.

>>> print(df.to_string())
                                    compound  category
 0  CCCCCC [hexane] + CCCCCC[N+]1(C)CCCCC1.O=S(=O)([N-]S(=O)(=O)C(F)(F)F)C(F)(F)F   Not met
 1  CC(C)CC(C)(C)C [2,2,4-trimethylpentane] + CCCCC[N+]1(C)CCCCC1.O=S(=O)([N-]S(=O)(=O)C(F)(F)F)C(F)(F)F   Not met
 2  C1CCCCCCC1 [cyclooctane] + CCCCC[N+]1(C)CCCCC1.O=S(=O)([N-]S(=O)(=O)C(F)(F)F)C(F)(F)F   Not met
 3  C=CCCCCCC [oct-1-ene] + CCCCCC[N+]1(C)CCCCC1.O=S(=O)([N-]S(=O)(=O)C(F)(F)F)C(F)(F)F   Not met
 4  CCCCO [butan-1-ol] + CCCCCC[N+]1(C)CCCCC1.O=S(=O)([N-]S(=O)(=O)C(F)(F)F)C(F)(F)F       Met
 5  C=CCCCCCCCC [1-decene] + CCCCC[N+]1(C)CCCCC1.O=S(=O)([N-]S(=O)(=O)C(F)(F)F)C(F)(F)F   Not met
 6  COC(C)(C)C [2-methoxy-2-methylpropane] + CCCCC[N+]1(C)CCCCC1.O=S(=O)([N-]S(=O)(=O)C(F)(F)F)C(F)(F)F       Met
 7  O [water] + CCCCCC[N+]1(C)CCCCC1.O=S(=O)([N-]S(=O)(=O)C(F)(F)F)C(F)(F)F   Not met
 8  CCCCC(C)=O [2-hexanone] + CCCCC[N+]1(C)CCCCC1.O=S(=O)([N-]S(=O)(=O)C(F)(F)F)C(F)(F)F       Met
 9  C#CCCC [1-pentyne] + CCCCC[N+]1(C)CCCCC1.O=S(=O)([N-]S(=O)(=O)C(F)(F)F)C(F)(F)F       Met
10  C#CCCCCCC [1-octyne] + CCCCC[N+]1(C)CCCCC1.O=S(=O)([N-]S(=O)(=O)C(F)(F)F)C(F)(F)F   Not met
11  CC1CCCCC1 [methylcyclohexane] + CCCCCC[N+]1(C)CCCCC1.O=S(=O)([N-]S(=O)(=O)C(F)(F)F)C(F)(F)F   Not met
12  CC(C)=O [acetone] + CCCCC[N+]1(C)CCCCC1.O=S(=O)([N-]S(=O)(=O)C(F)(F)F)C(F)(F)F       Met
13  CCC(C)(C)OC [2-methoxy-2-methylbutane] + CCCCC[N+]1(C)CCCCC1.O=S(=O)([N-]S(=O)(=O)C(F)(F)F)C(F)(F)F   Not met
14  C1CCCC1 [cyclopentane] + CCCCC[N+]1(C)CCCCC1.O=S(=O)([N-]S(=O)(=O)C(F)(F)F)C(F)(F)F   Not met
15  CC(C)=O [acetone] + CCCCCC[N+]1(C)CCCCC1.O=S(=O)([N-]S(=O)(=O)C(F)(F)F)C(F)(F)F       Met
16  C1CCOC1 [tetrahydrofuran] + CCCCCC[N+]1(C)CCCCC1.O=S(=O)([N-]S(=O)(=O)C(F)(F)F)C(F)(F)F       Met
17  CCCCO [butan-1-ol] + CCCCC[N+]1(C)CCCCC1.O=S(=O)([N-]S(=O)(=O)C(F)(F)F)C(F)(F)F       Met
18  CCC(C)(C)C [2,2-dimethylbutane] + CCCCCC[N+]1(C)CCCCC1.O=S(=O)([N-]S(=O)(=O)C(F)(F)F)C(F)(F)F   Not met
19  C1CCCCCC1 [cycloheptane] + CCCCC[N+]1(C)CCCCC1.O=S(=O)([N-]S(=O)(=O)C(F)(F)F)C(F)(F)F   Not met
20  Cc1cccc(C)c1 [1,3-dimethylbenzene] + CCCCCC[N+]1(C)CCCCC1.O=S(=O)([N-]S(=O)(=O)C(F)(F)F)C(F)(F)F       Met
21  C=CCCCC [hex-1-ene] + CCCCC[N+]1(C)CCCCC1.O=S(=O)([N-]S(=O)(=O)C(F)(F)F)C(F)(F)F   Not met
22  C=CCCCCCCCC [1-decene] + CCCCCC[N+]1(C)CCCCC1.O=S(=O)([N-]S(=O)(=O)C(F)(F)F)C(F)(F)F   Not met
23  CCCC(C)=O [pentan-2-one] + CCCCCC[N+]1(C)CCCCC1.O=S(=O)([N-]S(=O)(=O)C(F)(F)F)C(F)(F)F       Met
24  c1ccccc1 [benzene] + CCCCCC[N+]1(C)CCCCC1.O=S(=O)([N-]S(=O)(=O)C(F)(F)F)C(F)(F)F       Met

----------
Quick list: activity coefficient per entry.
assay: activity coefficient (dimensionless); of the first substance listed, at infinite dilution; xn = mol fraction of the nth substance listed; details: 328.15 K; 101 kPa; Liquid; Chromatography; x1 = 0
EXPERIMENTAL READOUT: activity coefficient

In [3]: df
Out[3]:
                                   compound  measurement
0  CC(C)=O [acetone] + CCCCCC[N+]1(C)CCCCC1.O=S(=O)([N-]S(=O)(=O)C(F)(F)F)C(F)(F)F        0.436
1  c1ccccc1 [benzene] + CCCCCC[N+]1(C)CCCCC1.O=S(=O)([N-]S(=O)(=O)C(F)(F)F)C(F)(F)F        0.695
2  C=CCCCC [hex-1-ene] + CCCCCC[N+]1(C)CCCCC1.O=S(=O)([N-]S(=O)(=O)C(F)(F)F)C(F)(F)F         4.34
3  CCCO [propan-1-ol] + CCCCCC[N+]1(C)CCCCC1.O=S(=O)([N-]S(=O)(=O)C(F)(F)F)C(F)(F)F         1.67
4  CCCCCCCC [octane] + CCCCCC[N+]1(C)CCCCC1.O=S(=O)([N-]S(=O)(=O)C(F)(F)F)C(F)(F)F         12.1
5  CCC(C)(C)C [2,2-dimethylbutane] + CCCCC[N+]1(C)CCCCC1.O=S(=O)([N-]S(=O)(=O)C(F)(F)F)C(F)(F)F          7.7
6  CC(C)=O [acetone] + CCCCC[N+]1(C)CCCCC1.O=S(=O)([N-]S(=O)(=O)C(F)(F)F)C(F)(F)F        0.435

----------
Quick list: activity coefficient per entry.
test: activity coefficient (dimensionless); of the first substance listed, at infinite dilution; xn = mol fraction of the nth substance listed; settings: 338.15 K; 101 kPa; Liquid; Chromatography; x1 = 0
EXPERIMENTAL READOUT: activity coefficient

>>> print(df.to_string())
                                   molecule  measurement
0  C1CCCCC1 [cyclohexane] + CCCCC[N+]1(C)CCCCC1.O=S(=O)([N-]S(=O)(=O)C(F)(F)F)C(F)(F)F         5.42
1  c1ccsc1 [thiophene] + CCCCCC[N+]1(C)CCCCC1.O=S(=O)([N-]S(=O)(=O)C(F)(F)F)C(F)(F)F        0.655
2  CCCCCCCCC [nonane] + CCCCCC[N+]1(C)CCCCC1.O=S(=O)([N-]S(=O)(=O)C(F)(F)F)C(F)(F)F         15.3
3  CO [methanol] + CCCCC[N+]1(C)CCCCC1.O=S(=O)([N-]S(=O)(=O)C(F)(F)F)C(F)(F)F         1.12
4  COC(C)(C)C [2-methoxy-2-methylpropane] + CCCCCC[N+]1(C)CCCCC1.O=S(=O)([N-]S(=O)(=O)C(F)(F)F)C(F)(F)F          1.7
5  Cc1ccccc1 [toluene] + CCCCCC[N+]1(C)CCCCC1.O=S(=O)([N-]S(=O)(=O)C(F)(F)F)C(F)(F)F        0.934
6  C#CCCCCCC [1-octyne] + CCCCCC[N+]1(C)CCCCC1.O=S(=O)([N-]S(=O)(=O)C(F)(F)F)C(F)(F)F         3.21

----------
A collection of compounds and their measured activity coefficient
assay: activity coefficient (dimensionless); of the first substance listed, at infinite dilution; xn = mol fraction of the nth substance listed; details: 358.15 K; 101 kPa; Liquid; Chromatography; x1 = 0
EXPERIMENTAL READOUT: activity coefficient

>>> df
                                    compound  experimental_readout  measurement
 0  C#CCCCC [1-hexyne] + CCCCC[N+]1(C)CCCCC1.O=S(=O)([N-]S(=O)(=O)C(F)(F)F)C(F)(F)F  activity coefficient         2.25
 1  C1CCCCCCC1 [cyclooctane] + CCCCCC[N+]1(C)CCCCC1.O=S(=O)([N-]S(=O)(=O)C(F)(F)F)C(F)(F)F  activity coefficient         6.53
 2  Cc1ccccc1C [1,2-dimethylbenzene] + CCCCC[N+]1(C)CCCCC1.O=S(=O)([N-]S(=O)(=O)C(F)(F)F)C(F)(F)F  activity coefficient         1.27
 3  CCCCCC [hexane] + CCCCCC[N+]1(C)CCCCC1.O=S(=O)([N-]S(=O)(=O)C(F)(F)F)C(F)(F)F  activity coefficient         6.37
 4  CCC(C)(C)OC [2-methoxy-2-methylbutane] + CCCCC[N+]1(C)CCCCC1.O=S(=O)([N-]S(=O)(=O)C(F)(F)F)C(F)(F)F  activity coefficient          2.6
 5  Cc1ccc(C)cc1 [1,4-dimethylbenzene] + CCCCC[N+]1(C)CCCCC1.O=S(=O)([N-]S(=O)(=O)C(F)(F)F)C(F)(F)F  activity coefficient          1.4
 6  CCCCC [pentane] + CCCCCC[N+]1(C)CCCCC1.O=S(=O)([N-]S(=O)(=O)C(F)(F)F)C(F)(F)F  activity coefficient         4.95
 7  CCCCCCCCC [nonane] + CCCCCC[N+]1(C)CCCCC1.O=S(=O)([N-]S(=O)(=O)C(F)(F)F)C(F)(F)F  activity coefficient         14.1
 8  CC(C)CC(C)(C)C [2,2,4-trimethylpentane] + CCCCCC[N+]1(C)CCCCC1.O=S(=O)([N-]S(=O)(=O)C(F)(F)F)C(F)(F)F  activity coefficient         8.43
 9  c1ccccc1 [benzene] + CCCCC[N+]1(C)CCCCC1.O=S(=O)([N-]S(=O)(=O)C(F)(F)F)C(F)(F)F  activity coefficient        0.753
10  C#CCCCCCC [1-octyne] + CCCCCC[N+]1(C)CCCCC1.O=S(=O)([N-]S(=O)(=O)C(F)(F)F)C(F)(F)F  activity coefficient         3.26
11  C1CCCCC1 [cyclohexane] + CCCCCC[N+]1(C)CCCCC1.O=S(=O)([N-]S(=O)(=O)C(F)(F)F)C(F)(F)F  activity coefficient         4.06
12  CCCCC(C)=O [2-hexanone] + CCCCCC[N+]1(C)CCCCC1.O=S(=O)([N-]S(=O)(=O)C(F)(F)F)C(F)(F)F  activity coefficient        0.784
13  Cc1ccccc1 [toluene] + CCCCC[N+]1(C)CCCCC1.O=S(=O)([N-]S(=O)(=O)C(F)(F)F)C(F)(F)F  activity coefficient         1.05
